# Target Under Test: CDK4/CyclinD1 (Homo sapiens)
# Assay Notes: CDK4/CyclinD1 Flashplate assay, 96-well format, biotinylated-Rb peptide substrate
# Type: biochemical
inhibition at 10 µM overview
Numeric only. Scale: %

>>> print(df.to_string())
                            smiles_notation  units_of_measure  recorded_value
0  CC(C)(C)NC(=O)Nc1nc2cc(OS(=O)(=O)c3ccc(NC4CCCC4)cc3)ccc2[nH]1                 %              83
1  CCNC(=O)Nc1nc2cc(OS(=O)(=O)c3ccc(NCCOC)cc3)ccc2[nH]1                 %              90
2  COC(=O)Nc1nc2cc(OS(=O)(=O)c3ccc(OCC(=O)N4CCN(C)CC4)cc3)ccc2[nH]1                 %              19
3  CN(C)c1ccc(NC(=O)Nc2nc3cc(OS(=O)(=O)c4ccc(NC5CCCC5)cc4)ccc3[nH]2)cc1                 %              88

# context switch: different molecule, same inhibition at 10 µM
Short answer for `COCCNC(=O)Nc1nc2cc(OS(=O)(=O)c3ccc(NCCN4CCOCC4)cc3)ccc2[nH]1` : inhibition at 10 µM was 88

---

# Target Under Test: CDK4/CyclinD1 (Homo sapiens)
# Assay Notes: CDK4/CyclinD1 Flashplate assay, 96-well format, biotinylated-Rb peptide substrate
Observation Type: IC50
State the value, then name its unit.

Worked cases, answers included:
                                   compound             target_under_test  recorded_value
0  CCN1CCCC1CNC(=O)Nc1nc2cc(OS(=O)(=O)c3ccc(NC4CCCC4)cc3)ccc2[nH]1 (centres unmarked)  CDK4/CyclinD1 (Homo sapiens)          330 nM
1  O=C(Nc1nc2cc(OS(=O)(=O)c3ccc(NCCO)cc3)ccc2[nH]1)C1CC1  CDK4/CyclinD1 (Homo sapiens)          340 nM
2  O=C(Nc1nc2cc(OS(=O)(=O)c3ccc(NCCOCCO)cc3)ccc2[nH]1)C1CC1  CDK4/CyclinD1 (Homo sapiens)         1600 nM
3  CCNC(=O)Nc1nc2cc(OS(=O)(=O)c3ccc(NC4CCCC4)cc3)ccc2[nH]1  CDK4/CyclinD1 (Homo sapiens)          600 nM
4  COC(=O)Nc1nc2cc(OS(=O)(=O)c3cc(F)ccc3C)ccc2[nH]1  CDK4/CyclinD1 (Homo sapiens)         1600 nM

Form field, IC50 with CDK4/CyclinD1 (Homo sapiens), item `O=C(Nc1ccc(Cl)cc1)Nc1nc2cc(OS(=O)(=O)c3ccc(NC4CCCC4)cc3)ccc2[nH]1` : 3710 nM

Form field, IC50 with CDK4/CyclinD1 (Homo sapiens), item NC(=O)CNC(=O)Nc1nc2cc(OS(=O)(=O)c3ccc(NCC4CCCO4)cc3)ccc2[nH]1 (centres unmarked) : 100 nM

Form field, IC50 with CDK4/CyclinD1 (Homo sapiens), item `Cc1cc(C)cc(Nc2nc3cc(OS(=O)(=O)c4ccc(NC5CCCC5)cc4)ccc3[nH]2)c1` : 2000 nM

---

# Target Under Test: CDK4/CyclinD1 (Homo sapiens, UniProt P11802)
# Sequence (P11802 whole entry, species assumed): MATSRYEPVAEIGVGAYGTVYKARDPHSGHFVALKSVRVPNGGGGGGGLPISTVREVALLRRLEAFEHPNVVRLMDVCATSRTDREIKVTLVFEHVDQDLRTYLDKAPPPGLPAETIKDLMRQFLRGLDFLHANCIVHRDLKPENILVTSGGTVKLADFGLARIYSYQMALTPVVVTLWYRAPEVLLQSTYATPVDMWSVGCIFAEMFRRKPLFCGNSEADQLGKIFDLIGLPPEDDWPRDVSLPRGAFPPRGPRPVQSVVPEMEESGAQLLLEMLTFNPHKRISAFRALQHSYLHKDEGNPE
# Sequence (P24385 whole entry partner, species assumed): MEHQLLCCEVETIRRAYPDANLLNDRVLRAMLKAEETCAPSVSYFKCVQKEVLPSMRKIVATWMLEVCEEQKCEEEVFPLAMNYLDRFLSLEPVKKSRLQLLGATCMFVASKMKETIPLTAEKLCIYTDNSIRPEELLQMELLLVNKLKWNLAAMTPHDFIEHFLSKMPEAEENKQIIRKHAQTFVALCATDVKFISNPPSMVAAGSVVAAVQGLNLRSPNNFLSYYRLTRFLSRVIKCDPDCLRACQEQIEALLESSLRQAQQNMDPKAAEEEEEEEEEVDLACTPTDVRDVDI
# Assay Notes: CDK4/CyclinD1 Flashplate assay, 96-well format, biotinylated-Rb peptide substrate
pIC50 overview
In simple prose, pIC50 is minus the logarithm base ten of a concentration in moles per litre.

In [3]: df
Out[3]:
                            smiles_notation  recorded_value
0  CNC(=O)Nc1nc2cc(OS(=O)(=O)c3ccc(NC4CCCC4)cc3)ccc2[nH]1            6.30
1  O=C(NCc1ccccc1)Nc1nc2cc(OS(=O)(=O)c3ccc(NC4CCCC4)cc3)ccc2[nH]1            6.00
2  COC(=O)Nc1nc2cc(OS(=O)(=O)c3ccccc3C(F)(F)F)ccc2[nH]1            6.00

# context switch: different compound, same pIC50
Short answer for `O=C(Nc1nc2cc(OS(=O)(=O)c3ccc(NCCNc4ccccc4)cc3)ccc2[nH]1)C1CC1` : pIC50 was 6.30
